Test system: Dirofilaria immitis microfilariae
Assay: In vitro assay 3: Dirofilaria immitis microfilariae (DIROIM L1), motility
Conditions: 72 h, read-out: EC50 (reduction of motility), 72 h incubation

Compound: O=C(N[C@H]1CCOc2ccccc21)c1cnc2c(-c3cc(Cl)cc(Cl)c3)cccc2c1N1CCC1 [Example 135]
EC50: < 1 µg/mL

Compound: O=C(N[C@H]1CCc2ccccc21)c1cnc2c(-c3cc(Cl)cc(Cl)c3)cccc2c1N1CCC[C@@H]1C(=O)O [Example 299]
EC50: < 1 µg/mL

Compound: C=C(C)c1c(C(=O)N[C@H]2CCOc3ccccc32)cnc2c(-c3cc(Cl)cc(Cl)c3)cccc12 [Example 317]
EC50: < 0.1 µg/mL

Compound: O=C(N[C@H]1CCOc2ccccc21)c1cnc2c(-c3cccc(Cl)c3)cccc2c1N1CCC(O)C1 (mixture of isomers) [Example 260]
EC50: < 0.1 µg/mL

Compound: CCOc1c(C(=O)N[C@H]2CCc3ccccc32)cnc2c(-c3cc(Cl)cc(Cl)c3)cccc12 [Example 134]
EC50: < 0.1 µg/mL

Compound: CCOC(=O)C(C#N)c1c(C(=O)N[C@H]2CCOc3ccccc32)cnc2c(-c3cc(Cl)cc(Cl)c3)cccc12 (stereo partly drawn) [Example 354]
EC50: < 1 µg/mL

Compound: N#Cc1c(C(=O)N[C@H]2CCOc3ccccc32)cnc2c(-c3cc(Cl)cc(Cl)c3)cccc12 [Example 362]
EC50: < 0.1 µg/mL

Compound: NC(=O)Cc1c(C(=O)N[C@H]2CCOc3ccccc32)cnc2c(-c3cc(Cl)cc(Cl)c3)cccc12 [Example 360]
EC50: < 0.1 µg/mL

Compound: O=C(N[C@H]1CCOc2ccccc21)c1cnc2c(-c3cc(Cl)cc(C(F)(F)F)c3)cccc2c1N1CCC(O)C1 (mixture of isomers) [Example 271]
EC50: < 0.1 µg/mL

Compound: O=C(N[C@H]1CCc2ccccc21)c1cnc2c(-c3cc(Cl)cc(Cl)c3)cccc2c1N1CC(O)C1 [Example 102]
EC50: < 1 µg/mL

Compound: O=C(N[C@H]1CCOc2ccccc21)c1cnc2c(-c3cc(Cl)cc(Cl)c3)cccc2c1N1CC[C@@H](C(=O)O)C1 [Example 332]
EC50: < 0.1 µg/mL

Compound: O=C(N[C@H]1CCCc2ccccc21)c1cnc2c(-c3cc(Cl)cc(Cl)c3)cccc2c1Cl [Example 2]
EC50: < 10 µg/mL

Compound: COc1ccc(F)cc1-c1cccc2c(N3CCC(O)C3)c(C(=O)N[C@H]3CCOc4ccccc43)cnc12 (mixture of isomers) [Example 270]
EC50: < 0.1 µg/mL

Compound: CC(C)(C)OC(=O)[C@@H]1CCCN1c1c(C(=O)N[C@H]2CCOc3ccccc32)cnc2c(-c3cc(Cl)cc(Cl)c3)cccc12 [Example 242]
EC50: < 1 µg/mL

Compound: O=C(N[C@H]1CCOc2ccccc21)c1cnc2c(-c3cc(Cl)cc(Cl)c3)cccc2c1C1CCOCC1 [Example 539]
EC50: < 0.1 µg/mL

Compound: O=C(N[C@H]1CCOc2ccccc21)c1cnc2c(-c3cc(Cl)cc(Cl)c3)cccc2c1Sc1ccccn1 [Example 363]
EC50: < 10 µg/mL

Compound: N#CCc1c(C(=O)N[C@H]2CCOc3ccccc32)cnc2c(-c3cc(Cl)cc(Cl)c3)cccc12 [Example 355]
EC50: < 0.1 µg/mL

Compound: COC(=O)[C@H]1CCN(c2c(C(=O)N[C@H]3CCOc4ccccc43)cnc3c(-c4cc(Cl)cc(Cl)c4)cccc23)C1 [Example 281]
EC50: < 0.1 µg/mL

Compound: O=C(N[C@H]1CCc2ccccc21)c1cnc2c(-c3cc(Cl)cc(Cl)c3)cccc2c1Cl [Example 3]
EC50: < 1 µg/mL

Compound: CN(C)c1c(C(=O)NC2COCc3ccccc32)cnc2c(-c3cc(Cl)cc(Cl)c3)cccc12 (stereo not drawn) [Example 581]
EC50: < 0.1 µg/mL

Compound: CCc1c(C(=O)N[C@H]2CCOc3ccccc32)cnc2c(-c3cccc(OC(F)(F)F)c3)cccc12 [Example 570]
EC50: < 0.1 µg/mL

Compound: CN(C)c1c(C(=O)N[C@H]2CCOc3ccccc32)cnc2c(-c3cccc(Cl)c3Cl)c(C(F)(F)F)ccc12 [Example 315]
EC50: < 0.1 µg/mL

Compound: Cc1ncc(-c2cccc3c(N(C)C)c(C(=O)N[C@H]4CCOc5ccccc54)cnc23)s1 [Example 456]
EC50: < 1 µg/mL

Compound: O=C(N[C@H]1CCOc2ccccc21)c1cnc2c(-c3cc(Cl)cc(Cl)c3)cccc2c1N1CC[C@@H](O)C1 [Example 283]
EC50: < 0.1 µg/mL
